test: Salt solubility measurement in water; details: water, thermodynamic from solid, Solubility as free base, stirred at ambient temperature 18-20 hours, filtered, hplc assay
Recorded solubility for the following compounds
quantity_name: solubility (µg/mL)

CS(=O)(=O)CCNCc1ccc(-c2ccc3ncnc(Nc4ccc(OCc5cccc(F)c5)c(Cl)c4)c3c2)o1.O.O=C(O)/C=C\C(=O)O.O=C(O)/C=C\C(=O)O [Dimaleate monohydrate]; 40
CS(=O)(=O)CCNCc1ccc(-c2ccc3ncnc(Nc4ccc(OCc5cccc(F)c5)c(Cl)c4)c3c2)o1.CS(=O)(=O)O [Monomesylate]; 330
CS(=O)(=O)CCNCc1ccc(-c2ccc3ncnc(Nc4ccc(OCc5cccc(F)c5)c(Cl)c4)c3c2)o1.O=C(O)/C=C\C(=O)O.O=C(O)/C=C\C(=O)O [Dimaleate]; 130
CCS(=O)(=O)O.CS(=O)(=O)CCNCc1ccc(-c2ccc3ncnc(Nc4ccc(OCc5cccc(F)c5)c(Cl)c4)c3c2)o1 [Monoesylate]; 520
CS(=O)(=O)CCNCc1ccc(-c2ccc3ncnc(Nc4ccc(OCc5cccc(F)c5)c(Cl)c4)c3c2)o1.O=C(O)c1ccccc1.O=C(O)c1ccccc1 [Dibenzoate]; 40

====

Recorded solubility for the following molecules
assay: Salt solubility measurement in water; settings: water, thermodynamic from solid, Solubility as free base, stirred at ambient temperature 18-20 hours, filtered, hplc assay
quantity_name: solubility

CS(=O)(=O)CCNCc1ccc(-c2ccc3ncnc(Nc4ccc(OCc5cccc(F)c5)c(Cl)c4)c3c2)o1.C[C@H](O)C(=O)O [Mono-L-lactate]; ~7300 µg/mL
CS(=O)(=O)CCNCc1ccc(-c2ccc3ncnc(Nc4ccc(OCc5cccc(F)c5)c(Cl)c4)c3c2)o1.CS(=O)(=O)O.CS(=O)(=O)O.O [Dimesylate monohydrate]; ~4360 µg/mL
CS(=O)(=O)CCNCc1ccc(-c2ccc3ncnc(Nc4ccc(OCc5cccc(F)c5)c(Cl)c4)c3c2)o1.CS(=O)(=O)O.CS(=O)(=O)O.O.O [Dimesylate dehydrate]; ~15300 µg/mL
CS(=O)(=O)CCNCc1ccc(-c2ccc3ncnc(Nc4ccc(OCc5cccc(F)c5)c(Cl)c4)c3c2)o1.O=C(O)C[C@H](O)C(=O)O [Mono L-malate]; 50 µg/mL
CS(=O)(=O)CCNCc1ccc(-c2ccc3ncnc(Nc4ccc(OCc5cccc(F)c5)c(Cl)c4)c3c2)o1.CS(=O)(=O)O.CS(=O)(=O)O [Dimesylate]; > 7350 µg/mL
CS(=O)(=O)CCNCc1ccc(-c2ccc3ncnc(Nc4ccc(OCc5cccc(F)c5)c(Cl)c4)c3c2)o1.O=C(O)CC(O)(CC(=O)O)C(=O)O [Monocitrate]; 10 µg/mL

====

tested on: breast (BT474) cell line; assay: Methylene blue growth inhibition assay, BT474; assay type: cell-based; details: Homo sapiens, BT-474, 72 h, BT474 cells, 3 days
quantity_name: IC50

CS(=O)(=O)CCNCc1ccc(-c2ccc3ncnc(Nc4ccc(OCc5cccc(F)c5)c(Cl)c4)c3c2)o1 [GW572016X]; < 5 µM

====

assay: Salt solubility measurement in water; conditions: water, thermodynamic from solid, Solubility as salt, stirred at ambient temperature 18-20 hours, filtered, hplc assay
quantity_name: solubility

CS(=O)(=O)CCNCc1ccc(-c2ccc3ncnc(Nc4ccc(OCc5cccc(F)c5)c(Cl)c4)c3c2)o1.CS(=O)(=O)O.CS(=O)(=O)O.O.O [Dimesylate dehydrate]; ~21.3 mg/mL
CS(=O)(=O)CCNCc1ccc(-c2ccc3ncnc(Nc4ccc(OCc5cccc(F)c5)c(Cl)c4)c3c2)o1.C[C@H](O)C(=O)O.C[C@H](O)C(=O)O [Di-L-lactate]; > 13.5 mg/mL
CCS(=O)(=O)O.CCS(=O)(=O)O.CS(=O)(=O)CCNCc1ccc(-c2ccc3ncnc(Nc4ccc(OCc5cccc(F)c5)c(Cl)c4)c3c2)o1 [Diesylate]; ~27.2 mg/mL
CS(=O)(=O)CCNCc1ccc(-c2ccc3ncnc(Nc4ccc(OCc5cccc(F)c5)c(Cl)c4)c3c2)o1.CS(=O)(=O)O.CS(=O)(=O)O [Dimesylate]; > 10 mg/mL
